testMethodNotes: Aqueous Stability (half-life period) at pH 9 and 37 degrees
Format: ADME
runConditions: aqueous solution
propertyLabel: half-life (h)
I only need the number, in h, no unit after it.

## Input Give the value of half-life reported for the following: `N=C(N)NCCC[C@H]1C(=O)N(C(=O)N2CCN(S(=O)(=O)c3ccccc3)CC2)[C@@H]1C(=O)O`
## Output 1.7

## Input Write down half-life measured for item `N=C(N)NCCC[C@H]1C(=O)N(C(=O)N2CCN(C(=O)OCCc3ccccc3)CC2)[C@@H]1C(=O)O`
## Output 7

## Input Output half-life of `CC(C)(C)NC(=O)N1CCN(C(=O)N2C(=O)[C@H](CCCN=C(N)N)[C@H]2C(=O)O)CC1`
## Output 8

## Input Fill in reported half-life for this entry: `CCN(CC)C(=O)N1CCN(C(=O)N2C(=O)[C@H](CCCN=C(N)N)[C@H]2C(=O)O)CC1`
## Output 6.4

## Input // Input: `N=C(N)NCCC[C@H]1C(=O)N(C(=O)NCc2ccccc2)[C@@H]1C(=O)O` . Output its half-life only.
## Output 6.8

## Input For the compound `N=C(N)NCCC[C@H]1C(=O)N(C(=O)NC2CCCCC2)[C@@H]1C(=O)O` , report half-life.
## Output 9.1

## Input Look up half-life of `CC(C)(C)CC(=O)N1CCN(C(=O)N2C(=O)[C@H](CCCN=C(N)N)[C@H]2C(=O)O)CC1` and report it.
## Output 6.5

## Input Give the value of half-life reported for the following: `CC(C)(C)C(=O)N1CCN(C(=O)N2C(=O)[C@H](CCCN=C(N)N)[C@H]2C(=O)O)CC1`
## Output 2.5

## Input Return half-life for the following compound: `COC(=O)N1CCN(C(=O)N2C(=O)[C@H](CCCN=C(N)N)[C@H]2C(=O)O)CC1`
## Output 5.6

## Input Given `CC(C)(C)OC(=O)N1CCN(C(=O)N2C(=O)[C@H](CCCN=C(N)N)[C@H]2C(=O)O)CC1` , respond with its half-life.
## Output 6.2

## Input Retrieve half-life measured for `CNC(=O)[C@@H]1[C@@H](CCCN=C(N)N)C(=O)N1C(=O)N1CCN(C(=O)OC(C)(C)C)CC1` and print it.
## Output 0.3

## Input Read the entry `CC(C)(C)OC(=O)N1CCN(C(=O)N2C(=O)[C@H](CCCN=C(N)N)[C@H]2C(=O)N2CCCCC2)CC1` and write its reported half-life.
## Output 0.8

## Input Answer with the recorded half-life of CC(C)(C)OC(=O)N1CCN(C(=O)N2C(=O)[C@H](CCCN=C(N)N)[C@H]2C(N)=O)CC1 (single isomer, unassigned) only.
## Output 0.3

## Input Read off the recorded half-life for N=C(N)NCCC[C@H]1C(=O)N(C(=O)Nc2ccccc2)[C@@H]1C(=O)O (stereo in doubt; 8a)
## Output 2.2

## Input # return recorded half-life for input `N=C(N)NCCC[C@H]1C(=O)N(C(=O)N2CCN(C(=O)c3ccccc3)CC2)[C@@H]1C(=O)O`
## Output 3.9

---

Field: Selectivity ratio. Provide a value for each of the compounds that follow.
Organism: Homo sapiens
testMethodNotes: Selectivity for human tryptase compared to human thrombin.

## Input Supply recorded Selectivity ratio for `N=C(N)NCCC[C@H]1C(=O)N(C(=O)N2CCN(C(=O)OCCc3ccccc3)CC2)[C@@H]1C(=O)O` here.
## Output 3320

## Input Could you please provide reported Selectivity ratio for `CC(C)(C)CC(=O)N1CCN(C(=O)N2C(=O)[C@H](CCCN=C(N)N)[C@H]2C(=O)O)CC1` ? Thanks!
## Output > 1000

## Input Quote Selectivity ratio reported for `N=C(N)NCCC[C@H]1C(=O)N(S(=O)(=O)c2ccc(-c3ccccc3)cc2)[C@@H]1C(=O)O` please.
## Output 7

## Input Provide measured Selectivity ratio value, entry: `CC(C)(C)OC(=O)N1CCN(C(=O)N2C(=O)[C@H](CCCN=C(N)N)[C@H]2C(=O)O)CC1`
## Output > 8250

## Input Give the value of Selectivity ratio reported for the following: `COC(=O)N1CCN(C(=O)N2C(=O)[C@H](CCCN=C(N)N)[C@H]2C(=O)O)CC1`
## Output 683

## Input Please supply the value of reported Selectivity ratio for the item CC(C)(C)OC(=O)N1CCN(C(=O)N2C(=O)[C@H](CCCN=C(N)N)[C@H]2C(N)=O)CC1 (single isomer, unassigned)
## Output 105

## Input Give the reported Selectivity ratio for this compound. `N=C(N)NCCC[C@H]1C(=O)N(C(=O)N2CCN(S(=O)(=O)c3ccccc3)CC2)[C@@H]1C(=O)O`
## Output 556

## Input Let me know recorded Selectivity ratio for `N=C(N)NCCC[C@H]1C(=O)N(C(=O)c2cccs2)[C@@H]1C(=O)O` , thanks.
## Output 190

## Input Specify Selectivity ratio for `CC(C)(C)NC(=O)N1CCN(C(=O)N2C(=O)[C@H](CCCN=C(N)N)[C@H]2C(=O)O)CC1` and stop.
## Output 2620
